# System Tested: recombinant pentameric gH complex (Towne strain) (human cytomegalovirus, Towne strain) (UniProt P17176)
# Sequence (P17176 30-715, one chain of several): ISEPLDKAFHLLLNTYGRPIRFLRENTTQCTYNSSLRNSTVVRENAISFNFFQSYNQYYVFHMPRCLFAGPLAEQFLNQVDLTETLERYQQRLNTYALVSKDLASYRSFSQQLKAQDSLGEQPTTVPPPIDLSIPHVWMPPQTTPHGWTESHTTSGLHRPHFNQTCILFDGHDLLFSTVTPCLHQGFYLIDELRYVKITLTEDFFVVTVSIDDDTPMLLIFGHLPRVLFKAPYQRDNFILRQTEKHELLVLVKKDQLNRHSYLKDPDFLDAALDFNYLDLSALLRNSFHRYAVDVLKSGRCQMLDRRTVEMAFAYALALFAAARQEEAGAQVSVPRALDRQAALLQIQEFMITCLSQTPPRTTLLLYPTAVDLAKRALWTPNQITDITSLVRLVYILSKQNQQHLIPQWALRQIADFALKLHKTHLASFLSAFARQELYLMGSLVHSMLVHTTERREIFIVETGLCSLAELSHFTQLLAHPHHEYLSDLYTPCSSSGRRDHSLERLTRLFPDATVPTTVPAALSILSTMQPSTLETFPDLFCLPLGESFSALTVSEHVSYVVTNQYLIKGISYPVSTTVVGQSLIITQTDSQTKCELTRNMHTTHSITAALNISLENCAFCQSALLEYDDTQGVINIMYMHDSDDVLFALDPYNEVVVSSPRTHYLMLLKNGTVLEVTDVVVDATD
# Assay Procedure: BLI competition on His-pentamer; competitor (antibody 2): 3-7
Metric: Pair-wise inhibition (%)

Binder | Observed Measurement
2-18 (antibody, V domains shown) VH: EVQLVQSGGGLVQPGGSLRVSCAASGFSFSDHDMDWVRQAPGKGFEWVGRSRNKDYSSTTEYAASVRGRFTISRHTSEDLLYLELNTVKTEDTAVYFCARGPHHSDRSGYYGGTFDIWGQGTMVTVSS VL: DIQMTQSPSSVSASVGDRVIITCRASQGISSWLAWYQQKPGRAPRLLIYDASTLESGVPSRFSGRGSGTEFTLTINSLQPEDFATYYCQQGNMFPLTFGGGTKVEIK | 16
1-150 (antibody, V domains shown) VH: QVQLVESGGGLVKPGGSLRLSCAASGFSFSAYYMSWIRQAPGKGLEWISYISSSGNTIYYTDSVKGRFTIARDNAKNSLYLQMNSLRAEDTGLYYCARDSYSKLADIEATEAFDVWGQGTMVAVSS VL: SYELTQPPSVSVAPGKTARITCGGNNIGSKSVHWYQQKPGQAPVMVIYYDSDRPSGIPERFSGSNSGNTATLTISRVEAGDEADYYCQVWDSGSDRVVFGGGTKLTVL | 0
2-25 (antibody, V domains shown) VH: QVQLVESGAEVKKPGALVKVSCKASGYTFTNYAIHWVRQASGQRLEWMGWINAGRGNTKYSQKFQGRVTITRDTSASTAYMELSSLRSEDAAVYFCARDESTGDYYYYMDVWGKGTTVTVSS VL: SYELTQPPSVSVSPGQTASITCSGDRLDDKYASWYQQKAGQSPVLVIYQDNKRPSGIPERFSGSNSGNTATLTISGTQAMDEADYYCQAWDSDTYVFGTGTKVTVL | 9
